# assay explanation: Cytotoxicity against mouse BV2 cells assessed as cell viability at 20 uM after 24 hrs by MTT assay relative to control
# Format: cell-based, BV-2
# experimental context: BV2 cells, read-out: Activity
What viability at 24 h, 20 µM was measured for each of the following?
Number in %, nothing else.

For CO[C@H]1CCN2[C@@H]3C=CC4=CC(=O)O[C@]4(C3)[C@H]2C1 , what is its reported viability at 24 h, 20 µM?
108

Quick check: viability at 24 h, 20 µM of CO[C@H]1CCN2[C@@H]3C=CC4=CC(=O)O[C@]4(C3)[C@@H]2C1 ?
88.7

# viability at 24 h, 20 µM lookup, item CNC(=N)NCCC[C@H](N)C(=O)O [TILARGININE]
99.7

Record request: viability at 24 h, 20 µM value, item CO[C@H]1CCN2O[C@@H]3C=CC4=CC(=O)O[C@]4(C3)[C@@H]2C1 [SECURINEGA AMAMINE D]
86.5

Entry under review: O=C1C=C2C=C[C@@H]3C[C@@]2(O1)[C@H]1CCCCN31 [SECURININE] . Reported viability at 24 h, 20 µM?
101

Give its viability at 24 h, 20 µM value. Item: O=C1C=C2C=C[C@H]3C[C@]2(O1)[C@H]1CCCCN1O3
96.7

Any idea what its viability at 24 h, 20 µM is? The compound is O=C1C=C2C=C[C@@H]3C[C@@]2(O1)[C@@H]1[C@H]2O[C@H]2CCN31
92.8

====

# Test system: A549
# assay explanation: Cytotoxicity against human A549 cells after 48 hrs by SRB assay
# Type: cell-based
# experimental context: A549, 48 h
endpoint: IC50

Can you look up the measured IC50 of CO[C@H]1CCN2[C@@H]3C=CC4=CC(=O)O[C@]4(C3)[C@H]2C1 for me?
> 10 µM

I am curious: what IC50 value has been reported for CO[C@H]1CCN2O[C@H]3C=CC[C@@]4(OC(=O)C=C34)[C@@H]2C1 ?
> 10 µM

# input compound: COc1cc([C@@H]2c3cc4c(cc3[C@@H](O[C@@H]3O[C@@H]5CO[C@@H](C)O[C@H]5[C@H](O)[C@H]3O)[C@H]3COC(=O)[C@H]23)OCO4)cc(OC)c1O [ETOPOSIDE] ; wanted: its IC50
0.7 µM

I have this compound here, O=C1C=C2C=C[C@H]3C[C@@]2(O1)[C@@H]1C[C@@H](O)CCN1O3 , and I need its recorded IC50.
> 10 µM

Sample O=C1C=C2C=C[C@H]3C[C@]2(O1)[C@H]1CCCCN1O3 — what was its IC50?
> 10 µM

// lookup IC50 for O=C1C=C2C=C[C@@H]3C[C@@]2(O1)[C@H]1CCCCN31
> 10 µM

If you can, please state the reported IC50 value of O=C1C=C2C=CCC[C@]2(c2ccccn2)O1 .
> 10 µM

Name the recorded IC50 for O=C1C=C2C=C[C@@H]3C[C@@]2(O1)[C@@]1(O)[C@H]2O[C@H]2CCN31 .
6.8 µM

Given O=C1C=C2C=C[C@H](O)C[C@@H]2O1 , state its recorded IC50.
> 10 µM

Name the reported IC50 value associated with the compound CO[C@H]1CCN2O[C@]34C=C[C@H](O)C[C@]3(OC(=O)C4)[C@@H]2C1
> 10 µM
